- Tested on: NCI-H460 lung
- testName: NCI tumour cell line growth inhibition, 48 h
# reported TGI; entries follow
Express the result in µM but write the number alone.

Answered cases to consult:
compound="C=C1C(=O)OC2/C=C(\\CO)CC/C=C(\\CO)CC(OC(=O)C(C)C)C12 (centres undefined)" readouttype=TGI measureunit=µM numericresult=38.6
compound=Nc1ccc(C(OC(=O)c2cc3ccccc3c(Cc3c(O)c(C(=O)OC(c4ccc(N)cc4)(c4ccc(N)cc4)c4ccc(N)cc4)cc4ccccc34)c2O)(c2ccc(N)cc2)c2ccc(N)cc2)cc1 readouttype=TGI measureunit=µM numericresult=7.24

Task: I am curious: what TGI value has been reported for Cc1ccc(Nc2cc(C)nc(NCCCNc3ccnc4cc(Cl)ccc34)n2)cc1 ?
Result: 3.23

Task: # iterate: COc1cccc(C2SC(C)C(=O)N2CCc2cccs2)c1 (centres undefined)
Result: 11

Task: Next record, please: CCCCCCCCCCCCCCCCCCOc1ccccc1CC(=O)NCC[N+](C)(C)C
Result: 52.4
